Data origin, for the record: PubChem BioAssay (NCI)

- System: SF-539 CNS
- assay.remarks: NCI tumour cell line growth inhibition, 48 h
Exercise: state measured TGI for each of the compounds provided.

Form field: reported TGI of `O=C(/C=C/c1ccco1)Nc1ncc(Cc2cccc(C(F)(F)F)c2)s1`
0.313 µM

Form field: reported TGI of `COc1cccc(N2C(=O)/C(=C/c3ccc(N(CCC#N)CCC#N)cc3)N=C2c2cc([N+](=O)[O-])ccc2Cl)c1`
> 100 µM

Form field: reported TGI of `COc1ccc(-c2[nH]c(-c3ccc(OC)cc3)c(-c3ccccn3)c2-c2ccccn2)cc1`
> 100 µM

Form field: reported TGI of `CCOC(=O)NC(=O)c1cn(CCCCCCCCCCC(=O)NCCCN2CCN(CCCNC(=O)CCCCCCCCCCn3cc(C(=O)NC(=O)OCC)c(=O)[nH]c3=O)CC2)c(=O)[nH]c1=O`
> 100 µM

Form field: reported TGI of `COc1ccc(C(OC(=O)[C@H](O[Si](C)(C)C(C)(C)C)[C@@H](NC(=O)c2ccccc2)c2ccccc2)c2ccc(OC)cc2)cc1`
> 100 µM

Form field: reported TGI of `CC(=O)n1nnc2ccc([N+](=O)[O-])cc21`
> 100 µM

Form field: reported TGI of `Cc1ccc(C(=O)O)c(/C=C2\Cc3cc(C)cc(C)c3C2=O)c1`
> 100 µM

Form field: reported TGI of Cc1cc2nc3c(=O)[nH]c(=O)nc-3n(CC(O)C(O)C(O)CO)c2cc1N (stereo not drawn)
> 100 µM

Form field: reported TGI of `O=C(/C=C\c1cc(Br)ccc1O)/C=C/c1cc(Br)ccc1O`
3.35 µM

Form field: reported TGI of `COc1ccc(N=N/C(=N\NC(=O)c2cc(Br)ccc2O)c2ccc(N(CCC#N)CCC#N)cc2OC)cc1`
> 150 µg/mL

Form field: reported TGI of `Cc1occc1C(=S)Nc1ccc(Cl)c(C(=O)OCC(C)C)c1`
43.6 µM

Form field: reported TGI of `Cn1cnc([N+](=O)[O-])c1Sc1nc2ccccc2o1`
24.1 µM

Form field: reported TGI of `O=[N+]([O-])c1ccc(NNN=Nc2ccc(-c3nc4ccccc4[nH]3)cc2)c([N+](=O)[O-])c1`
> 100 µM

Form field: reported TGI of Clc1cc2nc(C3CCCCO3)[nH]c2cc1Cl (stereo not drawn)
97 µM

Form field: reported TGI of CC(C)(C)[Si](C)(C)OC1[C@@H](O[Si](C)(C)C(C)(C)C)[C@@H](CNC(=O)NC(=O)NC(=O)CCl)O[C@H]1n1cnc2c(NC(=O)Nc3ccccc3)ncnc21 (stereo partly drawn)
16.1 µM

Form field: reported TGI of CCc1cccc(C)c1N1C(=O)C(=O)C(c2nc3ccccc3o2)/C(=N/NC(=S)NN)C1=O (stereo not drawn)
> 100 µM

Form field: reported TGI of O=C(NC(=O)c1ccccc1)OC(c1ccccc1)C1CO1 (stereo not drawn)
> 100 µM

Form field: reported TGI of `Brc1c2c(c(Br)c3nsnc13)N=S=N2`
57.6 µM
